// values below are reported apparent KD of MS2 coat protein
system: MS2 coat protein; assay: apparent KD of MS2 coat protein; designed switch direction (-1 OFF switch, 1 ON switch): -1; higher = weaker reporter binding; details: input ligand: none

>  <SEQUENCE DATA>
UACUGACAUGAGGAUCACCCAUGUGAGGAUAUUCUCCUGCCAAAUUAAUGGUGGGUGUGAAGAAGGCACAAGGA [EX1 C.12] (Eterna round: R97, puzzle: Exclusion 1)

>  <apparent KD of MS2 coat protein (nM)>
29.1

$$$$
>  <SEQUENCE DATA>
AUAGGAGGAGGAUAUACAUGAGGAUCACCCAUGUGAUCGCCGUAAAAUGCAGUUAGACGUAGAAGGUCUCCCGG [Eternabot (L2) Solution 77] (Eterna round: R97, puzzle: Exclusion 3)

>  <apparent KD of MS2 coat protein (nM)>
34.7

$$$$
>  <SEQUENCE DATA>
CGUUGGCGAGGAUAUACAUGAGGAUCACCCAUGUGAGAGAUACUAGUGAGGUCGAUUAGUAGAAGGCGCUGACG [Mat X3R4 m1] (Eterna round: R97, puzzle: Exclusion 3)

>  <apparent KD of MS2 coat protein (nM)>
34.9

$$$$

====

Quick reference: apparent KD of K4 kissing-loop reporter of the listed items.
tested on: K4 kissing-loop RNA reporter; assay: apparent KD of K4 kissing-loop reporter; higher = weaker reporter binding; conditions: Eterna round: R107; input ligand: none;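 further: bound reporter read as fluorescence of individual clusters on recovered sequencing chips by microscopy, with normalized cluster intensities fitted with a binding model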
ASSAY ENDPOINT: apparent KD of K4 kissing-loop reporter (nM)

>  <SEQUENCE DATA>
GGCAGUGAUGUUGCCAGUGGCAGAUGCGAAGGAGCGCGGUGAGACGCAGGUAGGUCGCGCAUUGAAAUUGCUGUCACUAGAAUGC [whbob_Ex_Arginine_A_2t127]

>  <ASSAY ENDPOINT>
apparent KD of K4 kissing-loop reporter

>  <RECORDED NUMBER>
283

$$$$
>  <SEQUENCE DATA>
GGAUCUGCCAGUGAUGUUGGUUAAUAUAUCAAGGAUAUGACGAAAGUCAGAAGGUGAAAGACUGGACAAAGUCCAGUCGGAUCCA [KL-SSFMN-A20]

>  <ASSAY ENDPOINT>
apparent KD of K4 kissing-loop reporter

>  <RECORDED NUMBER>
352

$$$$
>  <SEQUENCE DATA>
UGUCAUUGGUCGGCCGCCACUAUAAUAAAAGAGUGAUGUUCUAAAAGACGGACAAAAGUCUGUCGUAGGACCGGGACCGAUGACU [TrypBS 26 #SwitchBubble #StaticStem]

>  <ASSAY ENDPOINT>
apparent KD of K4 kissing-loop reporter

>  <RECORDED NUMBER>
805

$$$$

====

system: MS2 coat protein; assay: apparent KD of MS2 coat protein; higher = weaker reporter binding; settings: Eterna round: R107; input ligand: tryptophan 2.4 mM
Entries and their measured apparent KD of MS2 coat protein follow.

>  <SEQUENCE DATA>
UGUAUGUGAUUUGAUACCAGACCAGCUGGUGGUACAUGAGGAUCACCCAUGUAGGUUUGGGUCCCUUGGCAGCAAAUCGCAUACU [SSTheo B #24]

>  <VALUE UNIT>
nM

>  <apparent KD of MS2 coat protein>
44

$$$$
>  <SEQUENCE DATA>
ACCUGUACGAAAAGUGCAGGACAUGGUAAACGAGGACCGGUACGGCCGCCACUCGAAUAACAAGUGGAUCACCCUUGUAACCAUG [TrypAS 5 #AlternativeMS2 #Zipper #StaticStem]

>  <VALUE UNIT>
nM

>  <apparent KD of MS2 coat protein>
1090

$$$$
>  <SEQUENCE DATA>
UACAUGAGGAUCACCCAUGUAUGAAUAGAUACCAGCGAAAAUAAGCGCCCUUGGCAGCUAGUGAAUAAAGGGUGGGUAAAAUAAU [Exclusion Theophyline A GF 2]

>  <VALUE UNIT>
nM

>  <apparent KD of MS2 coat protein>
9.41

$$$$

====

tested on: MS2 coat protein; test: apparent KD of MS2 coat protein; designed switch direction (-1 OFF switch, 1 ON switch): 1; higher = weaker reporter binding; conditions: input ligand: microRNA oligo, concentration not stated

>  <SEQUENCE DATA>
AGCUAUUACGAAGGAUAUAGUAACAUGAGGAUCACCCAUGUUUACAUGAUUAAUUGUGAUCACGUCUAGAAGGUUGUACUAACA [SameState NG2 #34] (Eterna round: R96, puzzle: Same State NG 2)

>  <VALUE UNIT>
nM

>  <apparent KD of MS2 coat protein>
30.2

$$$$
>  <SEQUENCE DATA>
GUGGUCAGACAUGAGGAUCACCCAUGUGGAAUAAAUAACACACAGGAUAUGUAAUAUAAAAUAUAACAGAAGGGUGGAUUGGUG (Eterna round: R96, puzzle: Same State NG 3)

>  <VALUE UNIT>
nM

>  <apparent KD of MS2 coat protein>
213

$$$$
>  <SEQUENCE DATA>
UUAAUUAAUUAAUUAUACAUGAGGAUCACCCAUGUAAGUGAUCAGGAUAUCAGCUCGAAUAGAGCUGAGAAGGGAUCCAUGUAA [SSNG3/14-A1] (Eterna round: R96, puzzle: Same State NG 3)

>  <VALUE UNIT>
nM

>  <apparent KD of MS2 coat protein>
72.7

$$$$
>  <SEQUENCE DATA>
UGGUACAUGGGAGGAUAUGGGCAAGAGACAUGAGGAUCACCCAUGUUAUAAAAGCCGAGAGGCAUCUAGAAGGCCCAUGUACCU [JL SSNG1 3.90] (Eterna round: R96, puzzle: Same State NG 2)

>  <VALUE UNIT>
nM

>  <apparent KD of MS2 coat protein>
38.5

$$$$
>  <SEQUENCE DATA>
UCUGCAAGAACAGGAUAUGGGUUCAGAGCGGGAGUGCGCUUUGAUACAUGAGGAUCACCCAUGUCCCAGAAGGGUUCAAGCGGC [Maedraedbi] (Eterna round: R96, puzzle: Same State NG 2)

>  <VALUE UNIT>
nM

>  <apparent KD of MS2 coat protein>
35.2

$$$$

====

test system: MS2 coat protein; assay: apparent KD of MS2 coat protein; designed switch direction (-1 OFF switch, 1 ON switch): -1; higher = weaker reporter binding; conditions: input ligand: FMN 200 uM
Quick list: apparent KD of MS2 coat protein per entry.

>  <SEQUENCE DATA>
AGUGUGUGGCAGGAUAUGCAAUUAAUAGGUGAAGCAGAAGGGUCUACAUGAGGAUCACCCAUGUGUGCGGUUGA [Ex6 #22] (Eterna round: R97, puzzle: Exclusion 6)

>  <TARGET ENTITY>
MS2 coat protein

>  <apparent KD of MS2 coat protein>
154 nM

$$$$
>  <SEQUENCE DATA>
GUCAGUAUAUAACAAGCAUACAUGAGGAUCACCCAUGUGCGCGGAAAGCGUUUCCGCGCAUAUCGUUCCUAGCUCGG [Eternabot (Original) Solution 14] (Eterna round: R97, puzzle: Sensor, turn-off variant 1)

>  <TARGET ENTITY>
MS2 coat protein

>  <apparent KD of MS2 coat protein>
419 nM

$$$$
>  <SEQUENCE DATA>
UUAGAUAGGUCAGGAUAUCGAUGAUUGAAUUGUAUGAUUUACAUGAGGAUCACCCAUGUUUUGUACGAGAAGGGACGUUAGAUU [JR_ExcNG2_Sub018] (Eterna round: R96, puzzle: Exclusion NG 2)

>  <TARGET ENTITY>
MS2 coat protein

>  <apparent KD of MS2 coat protein>
26.7 nM

$$$$

====

system: MS2 coat protein; assay: apparent KD of MS2 coat protein; higher = weaker reporter binding; details: Eterna round: R107; input ligand: theophylline 2 mM
Consider the following sequences and their measured apparent KD of MS2 coat protein readings.
ASSAY ENDPOINT: apparent KD of MS2 coat protein

>  <SEQUENCE DATA>
UCUAACAUGAGGAUCACCCAUGUACCGUCCCGAGGACCGGUACGGCCGCCACUCGUCUUGCUAAAACUGAAGUGAUCACAAGCCU [theeternabot_sameState_MS2_Trp_A_2]

>  <ASSAY ENDPOINT>
apparent KD of MS2 coat protein

>  <RESULT>
24.6 nM

$$$$
>  <SEQUENCE DATA>
GGCUGUCAUAGGAGGUGAAAUAUACUCGAAGGAGCGUCAUAGUAGGCAGGUAGGUCGCGAGACAUGAGGAUCACCCAUGUAGAGA [yyumullin]

>  <ASSAY ENDPOINT>
apparent KD of MS2 coat protein

>  <RESULT>
67.7 nM

$$$$
>  <SEQUENCE DATA>
UGUAUGUGAUCUGAUACCAGCUAAUAAGCUUGAGGAUCACCCAAGUGGAGCGGAAACGCAGGCCCUUGGCAGCAGAUCGCAUACU [Denovo 9 #StaticStem #AlternativeMS2]

>  <ASSAY ENDPOINT>
apparent KD of MS2 coat protein

>  <RESULT>
11.7 nM

$$$$
>  <SEQUENCE DATA>
GUGGGUUUGCGAAGGAGCGGGUAUGUUUUCUACUGGAUCCUAACAUGAGGAUCACCCAUGUCCCAGGUAGGUCGCGCGGGCUUGG [12.Z]

>  <ASSAY ENDPOINT>
apparent KD of MS2 coat protein

>  <RESULT>
209 nM

$$$$
>  <SEQUENCE DATA>
UCGCCCGGGUCGGCCGCCACUGAGGUGAUAUGACAUGAGGAUCACCCAUGUUGUCAUGUGGAACAUAGGACCGGGACCCGGGCGA [Exclusion - Tryptophan B Attempt #2 (HarryS)]

>  <ASSAY ENDPOINT>
apparent KD of MS2 coat protein

>  <RESULT>
19.6 nM

$$$$
>  <SEQUENCE DATA>
AACGUGAACGUGGUAUACCCGUGUGCCGAAGGAGCGCCCGUAAGGGCAGGUAGGUCGCGGUCGACAUGAGGAUCACCCAUGUUUG

>  <ASSAY ENDPOINT>
apparent KD of MS2 coat protein

>  <RESULT>
106 nM

$$$$
>  <SEQUENCE DATA>
GGAGGUACCCGAAGGAGCGACAUGAGGAUCACCCAUGUCUCCCGUUAUGGGAGUUCCUUAGGUCAGGUAGGUCGCGGGUACCUCC [#1 Exclusion - Arginine B Attempt #1 (Inspired by Omei)]

>  <ASSAY ENDPOINT>
apparent KD of MS2 coat protein

>  <RESULT>
128 nM

$$$$
>  <SEQUENCE DATA>
GGAUGCGGCACGGCCGCCACUGCGGUGGUGUGACAUGAGGAUCACCCAUGUUGUCAUGCGGCCCUUAGGACCGGGUGGCGUGUCC [#1 Exclusion - Tryptophan B Attempt #19 (HarryS)]

>  <ASSAY ENDPOINT>
apparent KD of MS2 coat protein

>  <RESULT>
56.3 nM

$$$$
>  <SEQUENCE DATA>
UCCAUCGGCGGAAGCCGAUGGUUUACAGAAGGAGCGUAGGAAACUACAGGUAGGUCGCUGGACAUGAGGAUCACCCAUGUGUUUU [SSAA #12]

>  <ASSAY ENDPOINT>
apparent KD of MS2 coat protein

>  <RESULT>
30 nM

$$$$
>  <SEQUENCE DATA>
AUAACGAGUGGUGGAUAAUCCUCAUGUAAACGAGGACCGGUACGGCCGCCACUCGAUAACAUGAGGAUCACCCAUGUAAUAAUAA [|T'-M'-Trp-Ms2|_Design17]

>  <ASSAY ENDPOINT>
apparent KD of MS2 coat protein

>  <RESULT>
21.3 nM

$$$$
>  <SEQUENCE DATA>
GUACAUGAGGAUCACCCAUGUAUAGUUGAAGGAGCGACCAGAGGGUCAGGUAGGUCGCAGCACAUGGUGUAAACCCGUGUAUGCC [#1 Exclusion - Arginine A Attempt #22 (Inspired by Pi)]

>  <ASSAY ENDPOINT>
apparent KD of MS2 coat protein

>  <RESULT>
28.9 nM

$$$$

The origin of these recorded values is the supplement of paper PMC9170038.
